# test name: soluble on expression in E. coli; label from the status in PepcDB or PDB records
readout: soluble on expression in E. coli

Q: # query: soluble on expression in E. coli of entry MGSDKIHHHHHHQAEPAPLASAGPAANDPLEGFNRASFKLGMGLDRALLAPITHGYMAVTPRVVRDRVSLVIYNMGEPNTVMNQVLQGKPRQAVRSSTRFVVNSTVGVAGLFDVAAKMGLPPRGADFGQTFGRWGAGPGAYIYVPLMGPLNVRDGVGRALDIVTDPVSLFVGGLDTDFGRARTAITVVDLRATTDSAYEALKDASDPYVTTRSAYAQYREAFVREATGESEALPDFDAPPSEPNTSSATPNP
A: not soluble

Q: # query: soluble on expression in E. coli of entry MLHVAGRIEDYALIGDMQIAALVCQDGTVDWLCLPRFDSHAVFAGLLGTEEHGFWRLGPAHASDAEPPRASRRTYRGDSLILESEWDTPRGTVRVTDFMPPRDGAPQLIRIVEGVTGRVPMRSALRMRFSYGLEHHHHHH
A: not soluble
